test system: K-562 leukemia; test: NCI-60 one-dose screen, 48 h (100 = growth as untreated, 0 = no growth, -100 = all killed); conditions: 10 µM unless noted
This is part of a sample that, as a whole, favours compounds with a hit. Of some 83,000 tested, about 20% had one in any assay.
Criterion: growth strictly under 80%. Met: T. Not met: F.

{"columns": ["Compound", "System under test", "Classification"],
 "data": [
  ["O=c1c2cccc3c(Nc4c(F)cccc4F)ccc(c32)c2nc3ccccc3n12", "K-562 leukemia", "F"],
  ["COc1cccc(/C=C\\C(=O)c2ccccc2)c1", "K-562 leukemia", "T"],
  ["CN1Cc2c(cc(CN3CCCCC3)n2C)C(c2ccc(Br)cc2)C1 (centres undefined)", "K-562 leukemia", "T"],
  ["CNCCCn1c2c(c3ccc([N+](=O)[O-])cc3c1=O)C(=O)c1cc(OC)cnc1-2", "K-562 leukemia", "T"],
  ["O=C1NC(=O)C(CC(=O)n2c(-c3ccccc3)nc3ccccc32)C(=O)N1", "K-562 leukemia", "F"]
]}

Q: Take the compound `Cc1ccc(Nc2nc(N)nc(Nc3ccc4ccccc4c3)n2)cc1` and say whether its growth is less than 80%.
Ans: T

Q: Check if growth falls below 80% for `Cc1cc(Nc2nc(N3CCOCC3)nc3ccccc23)n[nH]1` .
Ans: T

Q: Problem: For the compound `C/C(Cc1ccc(Cl)cc1)=C(\c1ccc(OCCN2CCCCCC2)cc1)c1ccc(OC(=O)Cc2ccccc2)cc1` , is growth under 80%?
Ans: T

Q: Would you kindly verify if growth of `CCOC(=O)c1c2c(n3ccc(NC(=O)CCN4CCCCC4)cc13)C(=O)c1ncccc1C2=O` is strictly less than 80%?
Ans: T

Q: Consider `O=C1c2c[n+](Cc3ccccc3)ccc2-c2nc3ccccc3c3ccnc1c23` . Does its growth lie strictly below 80%?
Ans: T

Q: Could you please tell me whether growth recorded for `O=C(CO[N+](=O)[O-])Nc1ccc(C(=O)/C=C/c2ccc3c(c2)OCO3)cc1` is less than 80%?
Ans: T

Q: Confirm or reject: growth of `Cc1csc2ccc(Cl)cc12` lies strictly below 80%
Ans: F

###

tested on: CAKI-1 renal; assay: NCI-60 one-dose screen, 48 h; conditions: 10 µM unless noted
Compounds without any hit were thinned out: in the full panel of roughly 83,000, 20% have a hit. Active and inactive are the calls of the source. The calls were made as follows: active = growth percent below 10; inactive = the rest.
Select the correct class. Options are true (1) (active), false (0) (inactive) and nothing else.

{"columns": ["Compound", "Classification"],
 "data": [
  ["Cc1ccc(N)cc1F", "false (0)"],
  ["CCOC(=O)c1c2c(n3ccc(NC(=O)CCN4CCCCC4)cc13)C(=O)c1ncccc1C2=O", "false (0)"],
  ["C=C1CCC2C3(C)COC(c4ccc(SC)cc4)OC3CCC2(C)C1C/C=C1/C(=O)OCC1O (stereo not given)", "false (0)"],
  ["CC(=O)Oc1cc2cnc3c4cc(OC(C)=O)c(OC(C)=O)cc4ccc3c2cc1OC(C)=O", "true (1)"]
]}

Q: Check the results log: what was the call for `COc1ccc(/C=c2/c(=O)[nH]c3nc4sc(C)c(C)c4c(=O)n23)cc1` ?
Ans: false (0)

###

system: SNB-75 CNS; assay: NCI-60 one-dose screen, 48 h (100 = growth as untreated, 0 = no growth, -100 = all killed); details: 10 µM unless noted
Compounds without any hit were thinned out: in the full panel of roughly 83,000, 20% have a hit.
Assay metric: growth (%)
Could you give me the number in %? Just the number is fine.

{"columns": ["Molecule", "Readout value"],
 "data": [
  ["CN[C@@]12CC3(C=CC(=O)C=C3)O[C@]1(Cc1ccc(OC)cc1)N(C)C(=O)N2", 74.3],
  ["O=C1Nc2ccc(Br)cc2C12CC(c1ccccc1)=NN2 (stereo unspecified)", 28.1]
]}

Q: Find growth (SNB-75 CNS) for the entry `CC1=C(NCCN2CCCC2)C(=O)c2c(OCc3ccc(F)c(Cl)c3)cccc2C1=O`
Ans: 69.9

Q: Record lookup: for SNB-75 CNS, what growth belongs to O=C(CNC1C2CC3CC(C2)CC1C3)Sc1nnc2sc3ccccc3n12 (stereo unspecified) ?
Ans: 76.5

Q: growth of `COc1cc(OC)c(/C=C/S(=O)(=O)Cc2ccc(OC)c(N)n2)c(OC)c1` on SNB-75 CNS?
Ans: 40.5

Q: Lab request: please report growth under test system SNB-75 CNS for `CCCNc1nc(SC)nc(-c2cccc(N)c2)c1C#N`
Ans: 54.5

Q: Form field - read-out: growth; system: SNB-75 CNS; submitted item: `CNCCCn1c2c(c3ccc([N+](=O)[O-])cc3c1=O)C(=O)c1cc(OC)cnc1-2`
Ans: -26.5

Q: Please state recorded growth (tested on SNB-75 CNS) of `COc1ccc(/C=N\NC(=O)c2ccncc2)cc1O`
Ans: 74.8

Q: // map `COc1ccc(CNc2nccnn2)cc1` to recorded growth (system: SNB-75 CNS)
Ans: 85.6

Q: Find growth (SNB-75 CNS) for the entry `COc1ccc(C(=O)c2sc3nc4c(cc3c2N)CCCC4)cc1OC`
Ans: 49.3

Q: // map CC1(C)OCC2OC3(C(=O)O)OC(C)(C)OC3C2O1 (stereo unspecified) to recorded growth (system: SNB-75 CNS)
Ans: 89.2

Source: PubChem BioAssay (NCI)
